test system: 786-0; assay: NCI tumour cell line growth inhibition, 48 h
Calls of active or inactive are those of the source. Rule as the data show it: active = GI50 up to about 1.1 µM and inactive = higher.
# output must be one of true (active), false (inactive)

> print(dat)
                                   compound  class.name
1            CN(C)c1ccc2c3c(c(=O)oc2c1)CCC3       false
2  Clc1ccc(C2=C(c3ccccc3)C(c3ccc(Cl)cc3)N3C(=N[C@H]4CCCC[C@@H]43)N2)cc1 (stereo not given in full)       false
3                 CC#C[C@@]1(O)CCCC[C@@H]1O       false
4  CCOC(=O)c1c2ccc(/C=C/c3ccccn3)ccc-2c(C(=O)OCC)c1N       false

Q) Look up the recorded call for COc1ccc2nc(-c3ccc(O)cc3)cn2c1 in this test.
A) false

Q) Field: outcome | Entry: Cc1[nH]c2c(c1Cc1ccccc1)C1=NC=C(O)NN1C=N2
A) false

Q) # fetch the recorded call for CN=S(=O)(C[C@]1(O)CC2OC1C1OC(C)(C)OC21)c1ccccc1 (stereo not given in full) here
A) false

Q) In this assay, the call recorded for CC1=C2C(=C[C@@](C)(CO)[C@@H]2O)C(=O)[C@](C)(O)C12CC2 was what?
A) true

Q) Name the outcome recorded for C[C@@H](CO)C1=C(O)C(=O)c2c(ccc3c2CCCC3(C)C)C1=O in the assay.
A) false

----------
tested on: MCF7; assay: NCI tumour cell line growth inhibition, 48 h
The source made the active and inactive calls. Rule as the data show it: active = GI50 up to about 1.1 µM and inactive = higher.
Recorded GI50 for the following molecules

# count of solved cases: 4
> print(dat)
                            smiles.notation  study.target  readout.kind               result
1  COc1ccc(-c2c3c([nH]c(=S)c2C#N)CC(C)(C)CC3=O)cc1          MCF7          GI50  > 100 µM (inactive)
2            O=C1c2n[nH]nc2C(=O)c2n[nH]nc21          MCF7          GI50  > 100 µM (inactive)
3  CNC(=S)N/N=C1\C(=O)N(CN2CCOCC2)c2ccc([N+](=O)[O-])cc21          MCF7          GI50   20.4 µM (inactive)
4  Nc1c(C(=O)c2ccc(Cl)cc2)[nH]c(Nc2ccc(Cl)cc2)c1C(=S)Nc1ccccc1          MCF7          GI50   4.41 µM (inactive)

Q) Any idea what GI50 came out for N#Cc1c(N)nc2c(C#N)c(N)cc3c2c1Oc1ccccc1-3 on MCF7?
A) > 100 µM (inactive)

Q) Notebook: pull reported GI50 for MCF7, entry O=C1C=CC(=O)c2c(O)nc(CBr)nc21
A) 56.2 µM (inactive)

----------
test system: DU-145; experiment: NCI tumour cell line growth inhibition, 48 h
Activity calls are given as the source filed them. Rule as the data show it: active = GI50 up to about 1.1 µM and inactive = higher.
Form entry, call: pick from TRUE = active, FALSE = inactive

Reference set, count: 3
> print(dat)
                                   compound  class.name
1             CC1(C)OC[C@@H](O)[C@H](Br)CO1       FALSE
2      O=C1/C(=C/c2ccccc2)CCC/C1=C\c1ccccc1       FALSE
3  C=CC(=O)N1C/C(=C\c2ccc([N+](=O)[O-])cc2)C(=O)/C(=C/c2ccc([N+](=O)[O-])cc2)C1        TRUE

Q) Answer briefly: the call reported for CSC1NC(c2ccc(Cl)cc2)=C(C#N)C(=O)N1C1OCC(OC(C)=O)C(OC(C)=O)C1OC(C)=O (stereo not given) in this assay.
A) FALSE

Q) Hi, do you know how O=C1C=CC(=O)c2c(O)nc(CBr)nc21 came out in this test?
A) FALSE

Q) Outcome logged for CONC(C)=O in this assay:
A) FALSE

Q) Recorded test outcome, item CC(C)(/N=N/C(C)(C)C(=O)NCCO)C(=O)NCCO
A) FALSE

Q) Any idea what this test logged for CNn1c(C)n[nH]c1=O ?
A) FALSE

Q) Give the logged outcome of this assay for the following compound: Cc1c2cc[n+](C)cc2c(C)c2c1[nH]c1ccc(Cl)cc12
A) FALSE

----------
tested on: HT-29; test: NCI tumour cell line growth inhibition, 48 h
The source made the active and inactive calls. Rule as the data show it: active = GI50 up to about 1.1 µM and inactive = higher.
The entries below are paired with their reported GI50.

Q) Recorded GI50 of CCN(CC)C(=O)c1ccc(C)c(/N=N/N(C)C)c1 , please.
A) > 100 µM (inactive)

Q) Recorded GI50 for O=c1c([Se]c2coc3ccccc3c2=O)coc2ccccc12 , please?
A) 17.1 µM (inactive)

Q) For the molecule CC(=O)OCCCCn1cnc2c(Cl)nc(Nc3ccccc3)nc21 , what GI50 is on record?
A) > 100 µM (inactive)

----------
GI50 values recorded for HCT-15
Please respond with the number in µM and leave the unit unwritten.

// worked examples, GI50 included
> print(dat)
                                   compound  readout.kind  unit.spec  quantitative.result
1        O=C1c2sc(-c3ccc(F)cc3)cc2-n2cccc21          GI50         µM                 51.3
2  Cc1cc(O)nc(NN2C(Cl)C(=O)C2c2cccc([N+](=O)[O-])c2)n1 (stereo not given)          GI50         µM                 15.1
3  O=C(OC(=C(c1ccccc1)c1ccccc1)N1CCCC1=S)C(c1ccccc1)c1ccccc1          GI50         µM                 4.13
4  CSC1NC(c2ccc(Cl)cc2)=C(C#N)C(=O)N1C1OCC(OC(C)=O)C(OC(C)=O)C1OC(C)=O (stereo not given)          GI50         µM                 62.1
5  Fc1cccc(CSc2ncnc3c2ncn3C2CCCS2)c1 (stereo not given)          GI50         µM                 8.51
6  O=C1/C(=C/c2cccs2)N=C(c2ccccc2)N1C1Nc2cc3c(cc2S1)NC(N1C(=O)/C(=C/c2cccs2)N=C1c1ccccc1)S3 (stereo not given)          GI50         µM                 15.6
7  Nc1nc(Cl)c(N)c(NCC2(CO)CCC(OCc3ccccc3)C2)n1 (stereo not given)          GI50         µM                 61.9

Q) // returns reported GI50 for input COC1CC(=O)C2C(=O)N(c3ccccc3)C(=O)C23C(C(=O)c2ccccc2)=C(C)NC13O (stereo not given)
A) 8.49

----------
system: KM12; assay: NCI tumour cell line growth inhibition, 48 h
Active and inactive are the calls of the source. No stated cut-off is given here; in the data, active = GI50 up to about 1.1 µM and inactive = higher.
readout-kind: GI50

Some entries whose results are on file:
> print(dat)
                                   molecule               result
1    O=c1c([Se]c2coc3ccccc3c2=O)coc2ccccc12   11.3 µM (inactive)
2                        CN(C)C(=S)SCC(N)=O  > 100 µM (inactive)
3  O=[N+]([O-])c1ccc(Sc2c3ccccc3nc3cc(Cl)ccc23)cc1   > 10 µM (inactive)

Q) # query: GI50 of entry C#CCOC(=O)C(=[N+]=[N-])C(=O)CC(C)C
A) > 10 µM (inactive)

Q) Value lookup for GI50; key = CC(C)CCCC(C)[C@H]1CCC2[C@@H]3CCC4Nc5c(cnn5-c5ccccc5)C[C@]4(C)C3CC[C@@]21C (stereo not given in full)
A) 29.6 µM (inactive)

Q) Look up GI50: S=C1/C(=N/c2ccccc2)N(c2ccccc2)/C(=N\c2ccccn2)N1c1ccccc1
A) 12.9 µM (inactive)

Q) Requested read-out: GI50. Entry: CC(C)CC(NC(=O)C(CCI)Cc1ccccc1)C(=O)Nc1ccccc1 (stereo not given)
A) 37.5 µM (inactive)

Q) What does the data say about its GI50? Entry: COc1ccc(NC(=O)C(=O)NO)c(OC)c1
A) 19.8 µM (inactive)

Q) # get_value(readout='GI50', item= CCOC(=O)c1cc(-c2ccc(-c3cc(C(=O)OCC)c(C#N)c(N)c3C#N)cc2)c(C#N)c(N)c1C#N )
A) > 100 µM (inactive)

Q) Requested field: GI50. Item: Nc1ccn(C2OC(COC(=O)C34CC5CC(CC(C5)C3)C4)C(O)C2O)c(=O)n1 (stereo not given)
A) > 100 µM (inactive)

----------
test system: SF-295; assay: NCI tumour cell line growth inhibition, 48 h
Activity calls are given as the source filed them. Rule as the data show it: active = GI50 up to about 1.1 µM and inactive = higher.
Select the matching outcome among y = active, n = inactive

compound	class-name
N#Cc1ccccc1NC(=O)C(=O)C(C(=O)c1ccccc1-c1ccccc1)C1OC(=O)c2ccccc21 (stereo not given)	n
CONC(C)=O	n
COC1=CC(=O)NCCN1	n

Q) Could you check what this test reported for O=C(O)c1ccccc1C1c2ccc(Cl)cc2Oc2cc(Cl)ccc21 ?
A) n

Q) // param item: O=C(O)c1cccc(CN2CCCCC2)c1 ; yields the recorded call
A) n

Q) Outcome? CC(NC(=O)c1ccc(OP(=O)(OCC2=CC(=O)c3ccccc3C2=O)N(C)CCCCCl)cc1)c1ccc(OCC2CCCCC2)c(C(N)=O)c1 (stereo not given)
A) n

Q) What is the recorded call for this compound in the test? Cc1cc(S(=O)(=O)Nc2nncn2-c2ccc(Cl)cc2)c(S)cc1Cl
A) n

Q) Recorded test call requested for CC1=CC(=O)NCCN1C
A) n

Q) Which outcome was entered for the compound CC(C)(C)c1cc2c(O)c(c1)Cc1cc(C(C#N)(Cc3ccc4ccccc4c3)Cc3ccc4ccccc4c3)cc(c1O)Cc1cc(C(C)(C)C)cc(c1O)Cc1cc(C(C#N)(Cc3ccc4ccccc4c3)Cc3ccc4ccccc4c3)cc(c1O)C2 in this test?
A) n

Q) Please state the recorded outcome for this compound: O=C1OC(c2ccc(O)cc2)(c2ccc(O)cc2)c2ccc(Cl)c3cccc1c23.O=C1OC(c2ccc(O)cc2)(c2ccc(O)cc2)c2cccc3c(Cl)ccc1c23
A) n

Q) What call does the record list for CN(COC(=O)C(C)(C)C)c1nc(N(C)COC(=O)C(C)(C)C)nc(N(C)COC(=O)C(C)(C)C)n1 ?
A) n

Q) How was CCOC(=O)c1nc2ccc(C(F)(F)F)cc2nc1NCc1ccc(Cl)c(Cl)c1 classified in this test?
A) n

Q) Look up the recorded call for O=S(=O)(N/N=C/c1c(Cl)cccc1Cl)c1ccccc1 in this test.
A) n

Q) Hi team, can someone confirm the assay call for CC(C)N(C(=O)C12C3C4C5C3C1(C#N)C5C42)C(C)C (stereo not given) ?
A) n
